Assayed system: T1, 4H3102-AA
T1 chain: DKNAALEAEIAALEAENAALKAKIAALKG
Procedure text: two-hybrid library CCmax;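 also: natural log of median RNA to DNA barcode read ratio; higher means stronger binding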
Test context: mean of both orientations
The threshold is inclusive: interaction score of exactly 0.4 counts as true; values below receive false.

                                     binder  assigned_label
0  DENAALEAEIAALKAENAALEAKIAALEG [4H1109-AA]            true
1  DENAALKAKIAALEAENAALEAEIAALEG [4H1809-AA]            true
2  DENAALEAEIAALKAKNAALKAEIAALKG [4H1146-AA]            true
3  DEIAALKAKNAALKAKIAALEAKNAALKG [4H1000-AA]           false
4  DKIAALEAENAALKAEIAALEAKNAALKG [4H2248-AA]            true
5  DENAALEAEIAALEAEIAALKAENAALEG [4H1035-AA]           false
